Test system: Escherichia coli TOP10;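 note: peptides expressed intracellularly from a pBAD plasmid library in pooled LB shake-flask culture, induced with 0.3% L-arabinose, DNA abundance read by NGS, three biological replicates, DESeq2 with apeglm shrinkage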
protocolDescription: shrunken log2 fold change of peptide-encoding DNA abundance (4.5 h post-induction vs induction); higher = less antimicrobial activity (less host growth inhibition)
protocolConditions: time post-induction: 4.5 h; library: site-saturation at positions 5, 18, 19, 20
Catalogue of shrunken log2 fold change values

# biosequence, shrunken log2 fold change
measured = [
    ("RRIRDRPPRLPRPRPRPEIEPRP", 0.522),
    ("RRIRSRPPRLPRPRPRPGPFPRP", 0.00218),
    ("RRIRKRPPRLPRPRPRPPSLPRP", 0.46),
    ("RRIRERPPRLPRPRPRPGWVPRP", 0.381),
    ("RRIRGRPPRLPRPRPRPYQIPRP", -0.118),
    ("RRIRQRPPRLPRPRPRPGPCPRP", -0.0469),
    ("RRIRSRPPRLPRPRPRPRSLPRP", -0.0256),
    ("RRIRFRPPRLPRPRPRPRWHPRP", 0.059),
]

From: the supplement of paper PMC9112550
